These measurements were taken from PubChem BioAssay AID624295.

assay: Vero 76 cell cytotoxicity, cytotoxicity control for VEEV inhibitor project, set 6 (AID 624295); details: Vero 76 cells viability, cytotoxicity counter-screen; series mostly up to 25 µM
The source made the active and inactive calls. No rule for the calls is given here.
quantity: outcome

Field: example entries. Status: answers known.
[
  {
    "structure": "CCN1CCN(Cc2nc3ccc(I)cc3c(=O)n2-c2ccccc2)CC1",
    "outcome": "inactive"
  },
  {
    "structure": "CCN1CCN(Cc2nc3ccc(C(N)=O)cc3c(=O)n2-c2ccccc2)CC1",
    "outcome": "inactive"
  },
  {
    "structure": "NS(=O)(=O)c1ccc(-n2c(-c3ccccc3)nc3ccc(Br)cc3c2=O)cc1",
    "outcome": "inactive"
  },
  {
    "structure": "CN1CCN(Cc2nc3ccc([N+](=O)[O-])cc3c(=O)n2-c2ccccc2F)CC1",
    "outcome": "inactive"
  },
  {
    "structure": "CCN1CCN(Cc2nc3cccc([N+](=O)[O-])c3c(=O)n2-c2ccccc2)CC1",
    "outcome": "inactive"
  },
  {
    "structure": "CCN1CCN(Cc2nc3cc([N+](=O)[O-])ccc3c(=O)n2-c2ccccc2)CC1",
    "outcome": "inactive"
  }
]

outcome lookup needed for CCN1CCN(Cc2nc3ccc(C(=O)N(C)C)cc3c(=O)n2-c2ccccc2)CC1 , thanks.
inactive
